Species on record: Bos taurus
Assay: Inhibition of bovine trypsin assessed as protease activity using D-CHA-AR-AMC as substrate at 0.1 uM by fluorescence assay relative to control
Design: scale not given: the % may be the effect or the level left
metricName: Activity
Dear colleague, please send the value followed by its unit.

Examples with their reported Activity follow.
- compoundSmiles: "CNC(=N)Nc1ccc(C(=O)Oc2ccc(CC(=O)O)n3ncnc23)cc1"
  result: "9.6%"
- compoundSmiles: "C/C(=N\\O)Nc1ccc(C(=O)Oc2ccc(CC(=O)O)n3ncnc23)cc1"
  result: "-8.04%"
- compoundSmiles: "Cc1cc(NC(=N)N)ccc1C(=O)Oc1ccc(CC(=O)O)n2ncnc12"
  result: "9.45%"
- compoundSmiles: "O=C(O)Cc1ccc(OC(=O)c2ccc(NC3=NCCN3)cc2)c2ncnn12"
  result: "0.21%"
- compoundSmiles: "CN(C(=N)N)c1ccc(C(=O)Oc2ccc(CC(=O)O)n3ncnc23)cc1"
  result: "31.4%"
- compoundSmiles: "N=C(N)Nc1ccc(C(=O)Oc2ccc(CC(=O)N[C@@H](CC(=O)O)C(=O)O)n3ccnc23)cc1"
  result: "99.3%"
- compoundSmiles: "N=C(NN)c1ccc(C(=O)Oc2ccc(CC(=O)O)n3ncnc23)cc1"
  result: "1.62%"
- compoundSmiles: "CC(=N)Nc1ccc(C(=O)Oc2ccc(CC(=O)O)n3ncnc23)cc1"
  result: "11.5%"

May I ask what Activity has been recorded for "CNC(=N)c1ccc(C(=O)Oc2ccc(CC(=O)O)n3ncnc23)cc1" ? 5.66%

May I ask what Activity has been recorded for "N=C(N)Nc1ccc(C(=O)Oc2ccc(CC(=O)O)n3ncnc23)cc1" ? 97.2%
